# key: entry, value: pKi
# assay_target: human growth hormone secretagogue receptor (hGHS-R1a) (Homo sapiens, UniProt Q92847)
# Construct: purchased PerkinElmer BioSignal #RBHGHSM, lot#1887; host or cells: HEK-293, stably transfected
# Sequence (Q92847 whole entry): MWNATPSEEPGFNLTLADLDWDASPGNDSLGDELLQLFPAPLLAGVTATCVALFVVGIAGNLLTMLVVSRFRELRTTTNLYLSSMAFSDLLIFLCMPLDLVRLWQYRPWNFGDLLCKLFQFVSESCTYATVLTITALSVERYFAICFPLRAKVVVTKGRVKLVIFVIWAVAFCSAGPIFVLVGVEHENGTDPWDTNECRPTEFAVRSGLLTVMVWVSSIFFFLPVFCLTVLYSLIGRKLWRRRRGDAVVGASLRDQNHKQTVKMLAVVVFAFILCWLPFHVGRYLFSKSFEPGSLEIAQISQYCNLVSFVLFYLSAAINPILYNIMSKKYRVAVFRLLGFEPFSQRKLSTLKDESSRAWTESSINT
# assay_name: Competitive radioligand binding assay (ghrelin receptor), [125I]-ghrelin displacement
# measurement_context: Table 4; binding at human ghrelin receptor; TFA salts unless otherwise noted; read-out: Ki
pKi: −log10 of the molar value.
measure: pKi

molecule="CCC(C)C1NCCOc2ccccc2C=CCNC(=O)C(Cc2ccccc2)NC(=O)C(C)N(C)C1=O (stereo not shown)" result="8.00 to 10.00"
molecule="CC1C(=O)NC(Cc2ccc(F)cc2)C(=O)NCCCc2cc(NS(C)(=O)=O)ccc2OCCNC(C2CC2)C(=O)N1C (stereo not shown)" result="7.00 to 8.00"
molecule="CCCCC1NCCOc2ccccc2CCCNC(=O)C(Cc2ccccc2)NC(=O)CN(C)C1=O (stereo not shown)" result="7.00 to 8.00"
molecule="CCC(C)C1NCCOCC=CCCNC(=O)C(Cc2ccccc2)NC(=O)C(C)N(C)C1=O (stereo not shown)" result="6.00 to 7.00"

====

# key: entry, value: pKi
# assay_target: human growth hormone secretagogue receptor (hGHS-R1a) (Homo sapiens)
# Construct: purchased PerkinElmer BioSignal #RBHGHSM, lot#1887; host or cells: HEK-293, stably transfected
# assay_name: Competitive radioligand binding assay (ghrelin receptor), [125I]-ghrelin displacement
# measurement_context: Table 3C; binding activity at the human ghrelin receptor, class symbols; read-out: Ki
pKi: −log10 of the molar value.
measure: pKi

compound="O=C1NC/C=C/c2ccccc2OCCNC2(CCCC2)C(=O)NC2(CCCC2)C(=O)N[C@H]1Cc1ccccc1 [compound 18]" result="7.00 to 8.00"
compound="C[C@H]1NC(=O)C2(CCCC2)NCCOc2ccccc2C=CCNC(=O)[C@H](Cc2cccc(Cl)c2)NC1=O (stereo in doubt) [compound 351]" result="7.00 to 8.00"

====

# assay_target: human growth hormone secretagogue receptor (hGHS-R1a) (Homo sapiens)
# Construct: purchased PerkinElmer BioSignal #RBHGHSM, lot#1887; host or cells: HEK-293, stably transfected
# assay_name: Competitive radioligand binding assay (ghrelin receptor), [125I]-ghrelin displacement
# measurement_context: binding activity at the human ghrelin receptor; [125I]-ghrelin displacement, hGHS-R1a/HEK-293 membranes; read-out: Ki
pKi: −log10 of the molar value.
measure: pKi

molecule="CC(C)C1NCCOc2ccccc2C=CCNC(=O)C(Cc2ccccc2)NC(=O)C2(Cc3ccccc3C2)NC1=O (stereo not shown)" measure=pKi result="5.00 to 7.00"
molecule="CC(C)CC1NCCOc2ccccc2C=CCNC(=O)C(Cc2cscn2)NC(=O)C2(CCCC2)NC1=O (stereo not shown)" measure=pKi result="< 5.00"
molecule="CCOC(=O)CCC1NC(=O)C2(CCCC2)NC(=O)C(CC(C)C)NCCOc2ccccc2C=CCNC1=O (stereo not shown)" measure=pKi result="5.00 to 6.00"
molecule="CCCC1NCCOc2ccccc2CCCNC(=O)C(Cc2ccccc2)NC(=O)C(C)(C)NC1=O (stereo not shown)" measure=pKi result="5.00 to 7.00"
molecule="O=C1NC2(CCCC2)C(=O)NC(Cc2ccccc2)C(=O)NCC=Cc2ccccc2OCCNC1Cc1ccc2ccccc2c1 (stereo not shown)" measure=pKi result="5.00 to 7.00"
molecule="CN1CC(=O)NC(Cc2ccccc2)C(=O)NCCCc2ccccc2OCCNC(Cc2ccccc2)C1=O (stereo not shown)" measure=pKi result="5.00 to 7.00"
molecule="CCC(C)C1NCCOc2ccccc2CCNC(=O)C(Cc2ccccc2)NC(=O)C(C)N(C)C1=O (stereo not shown)" measure=pKi result="5.00 to 7.00"
molecule="CC(C)CC1NCCOc2ccccc2C=CCNC(=O)C(CC(C)C)NC(=O)C2(CCCC2)NC1=O (stereo not shown)" measure=pKi result="5.00 to 7.00"
molecule="CCC(C)C1NCCOc2ccccc2CCCNC(=O)C(CC(C)C)NC(=O)C(C)N(C)C1=O (stereo not shown)" measure=pKi result="7.00 to 8.00"
molecule="CCC(C)C1NCCOCC=CCCNC(=O)C(Cc2ccccc2)NC(=O)C(C)N(C)C1=O (stereo not shown)" measure=pKi result="5.00 to 7.00"
molecule="CCCCC1NC(=O)C(CCCC)NC(=O)C(C(C)C)NCCOc2ccccc2C=CCNC1=O (stereo not shown)" measure=pKi result="5.00 to 7.00"
molecule="CCC(C)C1NCCOc2cccnc2CCCNC(=O)C(Cc2ccccc2)NC(=O)C(C)N(C)C1=O (stereo not shown)" measure=pKi result="7.00 to 8.00"
molecule="CCC(C)C1NCCOCC=CCNC(=O)C(Cc2ccccc2)NC(=O)C(C)N(C)C1=O (stereo not shown)" measure=pKi result="5.00 to 7.00"
molecule="CCC(C)C1NCCCCc2ccccc2CCNC(=O)C(Cc2ccccc2)NC(=O)C(C)N(C)C1=O (stereo not shown)" measure=pKi result="5.00 to 7.00"
molecule="O=C1NCC=Cc2ccccc2OCCNC(C(c2ccccc2)c2ccccc2)C(=O)NC2(CCCC2)C(=O)NC1Cc1ccccc1 (stereo not shown)" measure=pKi result="< 5.00"
molecule="CCC(C)C1NCCCc2ccccc2CCNC(=O)C(Cc2ccccc2)NC(=O)C(C)N(C)C1=O (stereo not shown)" measure=pKi result="5.00 to 7.00"
molecule="CCCC1NCCOc2ccccc2CCCNC(=O)C(Cc2ccccc2)NC(=O)C(CCC(=O)O)NC1=O (stereo not shown) [compound 71]" measure=pKi result="< 5.00"
molecule="CC(C)CC1NCCOCCNC(=O)C(Cc2ccccc2)NC(=O)C2(CCCC2)NC1=O (stereo not shown)" measure=pKi result="< 5.00"
molecule="CC(C)CC1NCCOc2ccccc2CCCNC(=O)C(C)NC(=O)C2(CCCC2)NC1=O (stereo not shown)" measure=pKi result="< 5.00"
molecule="CCCC1NCc2ccccc2Sc2ccccc2CNC(=O)C(Cc2ccccc2)NC(=O)CN(C)C1=O (stereo not shown)" measure=pKi result="5.00 to 7.00"
molecule=O=C1NC/C=C/c2ccccc2OCCNC2(CCCC2)C(=O)NC2(CCCC2)C(=O)N[C@H]1Cc1ccccc1 measure=pKi result="7.00 to 8.00"
molecule="CCC(C)C1NCCc2ccccc2C=CCNC(=O)C(Cc2ccccc2)NC(=O)C(C)N(C)C1=O (stereo not shown)" measure=pKi result="5.00 to 7.00"
molecule="CCCCC1NCCOc2ccccc2CCCNC(=O)C(Cc2ccccc2)NC(=O)CN(C)C1=O (stereo not shown)" measure=pKi result="7.00 to 8.00"
molecule="CCC1NCCOc2ccccc2CCCNC(=O)C(Cc2ccccc2)NC(=O)C(C)N(C)C1=O (stereo not shown)" measure=pKi result="7.00 to 8.00"
molecule="COc1ccc(CC2NC(=O)C3(CCCC3)NC(=O)C(CC(C)C)NCCOc3ccccc3C=CCNC2=O)cc1 (stereo not shown)" measure=pKi result="7.00 to 8.00"
molecule="CCC(C)C1NCCOc2ccccc2CCCNC(=O)C(Cc2cscn2)NC(=O)C(C)N(C)C1=O (stereo not shown)" measure=pKi result="5.00 to 7.00"
molecule="CCCC1NCCOc2ccccc2C=CCNC(=O)C(Cc2ccccc2)NC(=O)C2(CCCC2)NC1=O (stereo not shown)" measure=pKi result="7.00 to 8.00"
molecule="CCCC1NCCOc2ccccc2CCCNC(=O)C(Cc2ccc(O)cc2)NC(=O)CN(C)C1=O (stereo not shown)" measure=pKi result="5.00 to 7.00"
molecule="CC(C)CC1NCCOc2ccccc2C=CCNC(=O)C2(CCCC2)NC(=O)C2(CCCC2)NC1=O (stereo not shown)" measure=pKi result="5.00 to 7.00"
molecule="CCCC1NCCOc2ccccc2C=CCNC(=O)C(Cc2ccccc2)NC(=O)C(C)N(C)C1=O (stereo not shown)" measure=pKi result="7.00 to 8.00"
molecule="CCCC1NCCOc2ccccc2CCCNC(=O)C(CO)NC(=O)CN(C)C1=O (stereo not shown)" measure=pKi result="< 5.00"

All figures here come from patent USRE42013E1.
